Molecular target: Tyrosine-protein phosphatase non-receptor type 1 (Homo sapiens, UniProt P18031)
Sequence (P18031 whole entry): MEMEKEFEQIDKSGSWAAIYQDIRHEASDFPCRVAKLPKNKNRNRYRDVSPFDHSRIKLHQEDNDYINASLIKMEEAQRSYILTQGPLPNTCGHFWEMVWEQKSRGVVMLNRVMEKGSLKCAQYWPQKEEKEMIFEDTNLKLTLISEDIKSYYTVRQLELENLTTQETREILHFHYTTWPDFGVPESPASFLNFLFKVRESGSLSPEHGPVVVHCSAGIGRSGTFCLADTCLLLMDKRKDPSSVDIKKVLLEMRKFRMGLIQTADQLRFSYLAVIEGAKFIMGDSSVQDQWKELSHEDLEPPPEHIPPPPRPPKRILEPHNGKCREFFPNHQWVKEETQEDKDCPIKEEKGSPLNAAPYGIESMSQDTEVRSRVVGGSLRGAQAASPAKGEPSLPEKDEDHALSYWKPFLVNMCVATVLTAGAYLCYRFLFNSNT
Assay: Competitive inhibition of PTP1B (unknown origin) using p-nitrophenyl phosphate as substrate
Observation type: IC50 (µM)
Output spec: scalar in µM, unitless text.

>  <Smiles data>
O=C(/C=C/c1ccco1)c1cccc(Cl)c1

>  <Result units>
µM

>  <IC50>
2.9

$$$$

Next molecule, please.
Query :: IC50 for `O=C(/C=C/c1ccco1)c1ccc(O)cc1O` ?
Result :: 2.49

---

Examples of compounds with documented inhibition follow.
target: Aldo-keto reductase family 1 member B1 (Homo sapiens) (UniProt P15121); assay: Inhibition of aldose reductase (unknown origin) at 10 ug/ml
Form entry: value (%) — number only.

Below, 3 compounds whose answers are already recorded.
>  <Compound>
CC(/C=C1\SC(=S)N(CC(=O)O)C1=O)=C\c1ccccc1

>  <Assayed system>
Aldo-keto reductase family 1 member B1 (Homo sapiens) (UniProt P15121)

>  <inhibition (%)>
55.6

$$$$
>  <Compound>
C=C(C)C(CCC(C)(C)O)Cc1c(O)cc(OC)c(C(=O)/C(O)=C/c2ccc(O)cc2O)c1O (centres undefined)

>  <Assayed system>
Aldo-keto reductase family 1 member B1 (Homo sapiens) (UniProt P15121)

>  <inhibition (%)>
53.7

$$$$
>  <Compound>
COc1cc(O)c(CC=C(C)C)c(O)c1C(=O)/C(O)=C/c1ccc(O)cc1

>  <Assayed system>
Aldo-keto reductase family 1 member B1 (Homo sapiens) (UniProt P15121)

>  <inhibition (%)>
53.7

$$$$

Query :: Using the record for C=C(C)C(CC=C(C)C)Cc1c(O)cc(OC)c(C(=O)/C(O)=C/c2ccc(O)cc2O)c1O (centres undefined) , report its inhibition.
Result :: 53.7
